The values you see were collected from patent US10131675B2.

TESTED_TARGET: DLK (Homo sapiens (Human), UniProt Q12852)
Sequence (Q12852 1-520): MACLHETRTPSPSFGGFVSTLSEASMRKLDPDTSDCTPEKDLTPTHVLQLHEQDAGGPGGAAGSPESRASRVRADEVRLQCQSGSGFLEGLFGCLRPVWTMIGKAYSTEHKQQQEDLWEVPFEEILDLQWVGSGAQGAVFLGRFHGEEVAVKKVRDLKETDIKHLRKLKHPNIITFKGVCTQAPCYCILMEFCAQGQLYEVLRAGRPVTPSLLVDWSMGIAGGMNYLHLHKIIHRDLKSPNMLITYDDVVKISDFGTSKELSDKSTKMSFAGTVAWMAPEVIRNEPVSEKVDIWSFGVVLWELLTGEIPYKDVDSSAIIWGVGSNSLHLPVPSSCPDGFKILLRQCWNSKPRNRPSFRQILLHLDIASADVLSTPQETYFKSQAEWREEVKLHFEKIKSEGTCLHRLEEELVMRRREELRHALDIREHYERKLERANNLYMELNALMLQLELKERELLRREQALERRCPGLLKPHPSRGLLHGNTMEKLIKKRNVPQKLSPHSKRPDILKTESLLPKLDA
PROTOCOL_DETAILS: DLK TR-FRET Inhibition Assay
CONDITION_NOTES: N-terminally GST-tagged DLK (catalytic domain amino acid 1-520), MKK4 K131M substrate, 30 μM ATP; read-out: DLK HTRF Ki
Each record's class is read off its Ki using these ranges: low-valued: < 100 nM; mid-valued: ≥ 100 nM and < 400 nM; high-valued: ≥ 400 nM

Req: Please report the category associated with CC1(C)OCCn2c1nc1c(N3CC4CC3C4)nc(-c3cnc(N)c(Cl)c3)nc12 [Example 35] , nothing else.
Resp: mid-valued

Req: Entry COc1nc(-c2cnc3[nH]cc(C(F)(F)F)c3c2)nc2c1nc1n2CCOC1(C)C [Example 87] belongs to which category?
Resp: low-valued

Req: Please indicate the class for CC(C)N(c1nc(-c2cnc(N)nc2)nc2c1nc1n2CCOC1(C)C)C1CC1 [Example 63] based on its Ki.
Resp: high-valued

Req: Which class holds CC1(C)OCCn2c1nc1c(N3CCC4(CCCO4)C3)nc(-c3cnc(N)nc3)nc12 (centres unmarked) [Example 156] ?
Resp: high-valued

Req: Using the reported Ki, which band applies to CC1(C)OCCn2c1nc1c(N3CC(F)(F)C3)nc(-c3cnc(N)nc3)nc12 [Example 68] ?
Resp: high-valued

Req: In plain terms, what class is COc1cc(-c2nc(N3CC4CC3C4)c3nc4n(c3n2)CCOC4(C)C)cnc1N [Example 57] ?
Resp: mid-valued

Req: Bin this entry: CCOc1cc(-c2nc(N3CC(F)(F)C3)c3nc4n(c3n2)CCOC4(C)C)cnc1N [Example 69]
Resp: mid-valued

Req: Hey, which category is CC1(C)OCCn2c1nc1c(N3CC4CCC3C4)nc(-c3cnc4[nH]cnc4c3)nc12 (centres unmarked) [Example 147] in, do you know?
Resp: low-valued

Req: Which Ki band matches CC1(C)OCCn2c1nc1c(OC3CCC3)nc(-c3cnc(N)nc3)nc12 [Example 88] ?
Resp: mid-valued

Req: For the record COC1CN(c2nc(-c3cnc4[nH]cc(C(F)(F)F)c4c3)nc3c2nc2n3CCCOC2)C1 [Example 145] , report the class its Ki corresponds to.
Resp: low-valued

Req: Sort into band: CC1(C)OCCCn2c1nc1c(N3CCCC3)nc(-c3cnc(N)nc3)nc12 [Example 134]
Resp: mid-valued

Req: Category of CC(C)c1c[nH]c2ncc(-c3nc(N4CC(F)(F)C4)c4nc5n(c4n3)CCOC5(C)C)cc12 [Example 67] :
Resp: low-valued

Req: Returns: class label. Input: CC1(C)OCCn2c1nc1c(N3CC4CCC3C4)nc(-c3cnc(N)nc3)nc12 (centres unmarked) [Example 33]
Resp: low-valued

Req: Which Ki category applies to CC1(C)OCCn2c1nc1c(OC3CCCC3)nc(-c3cnc(N)nc3)nc12 [Example 84] here?
Resp: mid-valued

Req: Quick check: band for CC1(C)OCCn2c1nc1c(N3CCC(F)(F)C3)nc(-c3cnc(N)c(Cl)c3)nc12 [Example 81]
Resp: mid-valued

Req: Pick a category. Item: C[C@@]1(C2CC2)OCCn2c1nc1c(C3CC3)nc(-c3cnc(N)nc3)nc12 (single isomer, unassigned) [Example 106]
Resp: mid-valued

Req: Class label required: CC1(C)OCCn2c1nc1c(C3CC3)nc(-c3cnc(N)nc3)nc12 [Example 122]
Resp: mid-valued

Req: Could you place CC1(C)OCCn2c1nc1c(N3CC4CC3C4)nc(-c3cnc(N)c(F)c3)nc12 [Example 36] in its proper category? Many thanks.
Resp: high-valued

Req: Consider CC[C@@]1(C)OCCn2c1nc1c(N3CC4CC3C4)nc(-c3cnc(N)nc3)nc12 (single isomer, unassigned) [Example 93] . To which Ki class does it belong?
Resp: mid-valued

Req: Which of the defined bands does the recorded Ki of CC1(C)OCCn2c1nc1c(N3CC4CC3C4)nc(-c3cnc(N)nc3)nc12 [Example 46] sit within?
Resp: mid-valued

Req: Into which bin does this compound go? CC1(C)OCCn2c1nc1c(N3CC(C#N)C3)nc(-c3cnc4[nH]cnc4c3)nc12 [Example 112]
Resp: high-valued

Req: Hello team, could you let me know which band the following compound falls into: C[C@H]1CCCN1c1nc(-c2cnc(N)nc2)nc2c1nc1n2CCOC1(C)C [Example 53]
Resp: high-valued

Req: Quick check: band for C[C@@H]1CC[C@H](C)N1c1nc(-c2cnc(N)nc2)nc2c1nc1n2CCOC1(C)C [Example 55]
Resp: mid-valued

Req: Tag the class for CCC1CCCN1c1nc(-c2cnc(N)nc2)nc2c1nc1n2CCOC1(C)C (centres unmarked) [Example 24]
Resp: mid-valued

Req: Just checking, what class would you give CC1(C)OCCn2c1nc1c(N3CC4CC3C4)nc(-c3cnc(N)c(C(F)(F)F)c3)nc12 [Example 150] here?
Resp: mid-valued

Req: Given COC1CN(c2nc(-c3cnc4[nH]cc(C#N)c4c3)nc3c2nc2n3CCOC2(C)C)C1 [Example 41] , name the class its Ki places it in.
Resp: low-valued

Req: GET /class?item= CC1(C)OCCn2c1nc1c(N3C[C@H]4CCC(F)(F)[C@H]4C3)nc(-c3cnc(N)nc3)nc12 (racemic) [Example 15]
Resp: mid-valued

Req: Which band does CCC(C)Oc1cc(-c2nc(N3CCC(F)(F)C3)c3nc4n(c3n2)CCOC4(C)C)cnc1N (centres unmarked) [Example 80] fall in?
Resp: high-valued

Req: Band of CC1(C)OCCn2c1nc1c(N3CCC4CC43)nc(-c3cnc(N)nc3)nc12 (centres unmarked) [Example 7] ?
Resp: mid-valued

Req: Input Cc1n[nH]c2ncc(-c3nc(N4CC5CC4C5)c4nc5n(c4n3)CCOC5(C)C)cc12 [Example 19] ; output its category
Resp: high-valued

Req: Kindly identify the class of C[C@H]1COC(C)(C)c2nc3c(N4CC5CC4C5)nc(-c4cnc(N)nc4)nc3n21 (single isomer, unassigned) [Example 97] .
Resp: low-valued

----------
TESTED_TARGET: DLK (Homo sapiens (Human))
PROTOCOL_DETAILS: DLK TR-FRET Inhibition Assay
CONDITION_NOTES: N-terminally GST-tagged DLK (catalytic domain amino acid 1-520), MKK4 K131M substrate, 30 μM ATP; read-out: DLK HTRF Ki
MEASURED_ENDPOINT: Ki (nM)
Numeric answer only, unit nM assumed.

Req: Consider the compound Cc1c[nH]c2ncc(-c3nc(N4CC5CCC4C5)c4nc5n(c4n3)CCOC5(C)C)cc12 (stereo not shown) . State its measured Ki.
Resp: 31.8

Req: Provide only the value of recorded Ki for CC1(C)OCCn2c1nc1c(C3(C#N)CCC3)nc(-c3cnc(N)nc3)nc12
Resp: 1000

Req: For the compound CCOc1cc(-c2nc(N3CC4CC3C4)c3nc4n(c3n2)CCOC4(C)C)cnc1N , give its measured Ki value.
Resp: 279

Req: Look up and report measured Ki for this entry: CC1(C)OCCn2c1nc1c(N3CC(C#N)C3)nc(-c3cnc4[nH]cc(F)c4c3)nc12
Resp: 183

----------
TESTED_TARGET: UniProtKB Q12852
PROTOCOL_DETAILS: DLK TR-FRET Inhibition Assay
CONDITION_NOTES: N-terminally GST-tagged DLK (catalytic domain amino acid 1-520), MKK4 K131M substrate, 30 μM ATP; read-out: DLK HTRF Ki
pKi: −log10 of the molar value.
Values of pKi greater than or equal to 7 map to yes; values below map to no.

Req: Hi team, for CC(C)Oc1cc(-c2nc(N3CCC(F)(F)C3)c3nc4n(c3n2)CCOC4(C)C)cnc1N [Example 79] , is the recorded pKi at or above 7?
Resp: no

Req: Confirm if pKi reported for the compound CC1(C)OCCn2c1nc1c(C3CC3)nc(-c3cnc(N)c(C#N)c3)nc12 [Example 126] is 7 or above.
Resp: no

Req: Threshold query (pKi >= 7) on Cc1c[nH]c2ncc(-c3nc(C4CC4)c4nc5n(c4n3)CCOC5(C)C)cc12 [Example 121]
Resp: yes

Req: I'd appreciate it if you could say whether CC1(C)OCCn2c1nc1c(C3CC3)nc(-c3cnc4c(c3)CCN4)nc12 [Example 125] has pKi at least equal to 7.
Resp: no

Req: pKi >= 7 for CC1(C)OCCn2c1nc1c(N3CC4CC3C4)nc(-c3cnc(N)c(OC(F)F)c3)nc12 [Example 43] ?
Resp: yes

Req: Is it the case that Nc1ncc(-c2nc(N3CC4CC3C4)c3nc4n(c3n2)CCCOC4)cn1 [Example 132] has pKi reaching or exceeding 7?
Resp: no

Req: Does pKi meet or surpass 7 for CC1(C)OCCn2c1nc1c(OCC3CC3)nc(-c3cnc(N)nc3)nc12 [Example 86] ?
Resp: no

Req: Evaluate CC1(C)OCCn2c1nc1c(N3CC4CC3C4)nc(-c3cncc(C(F)(F)F)c3)nc12 [Example 92] : pKi at minimum 7?
Resp: no

Req: Quick check: does CO[C@H]1CC2CC1CN2c1nc(-c2cnc(N)nc2)nc2c1nc1n2CCOC1(C)C (single isomer, unassigned) [Example 141] have pKi greater than or equal to 7?
Resp: no

Req: Please check the record CN(c1nc(-c2cnc(N)nc2)nc2c1nc1n2CCOC1(C)C)C1CC1 [Example 60] and state if its pKi is at or above 7.
Resp: no

Req: Check if pKi >= 7 (inclusive). Item: C[C@@H]1CCCN1c1nc(-c2cnc(N)nc2)nc2c1nc1n2CCOC1(C)C [Example 26]
Resp: no

Req: Is reported pKi greater than or equal to 7 here: COC1CN(c2nc(-c3cnc4[nH]cnc4c3)nc3c2nc2n3CCOC2(C)C)C1 [Example 111]
Resp: no

Req: # check: pKi of CC1CCC(C)N1c1nc(-c2cnc(N)nc2)nc2c1nc1n2CCOC1(C)C (centres unmarked) [Example 54] is greater than or equal to 7
Resp: no
